- TARGET: mDAGLα (Mus musculus)
- Sequence (Q6WQJ1 whole entry): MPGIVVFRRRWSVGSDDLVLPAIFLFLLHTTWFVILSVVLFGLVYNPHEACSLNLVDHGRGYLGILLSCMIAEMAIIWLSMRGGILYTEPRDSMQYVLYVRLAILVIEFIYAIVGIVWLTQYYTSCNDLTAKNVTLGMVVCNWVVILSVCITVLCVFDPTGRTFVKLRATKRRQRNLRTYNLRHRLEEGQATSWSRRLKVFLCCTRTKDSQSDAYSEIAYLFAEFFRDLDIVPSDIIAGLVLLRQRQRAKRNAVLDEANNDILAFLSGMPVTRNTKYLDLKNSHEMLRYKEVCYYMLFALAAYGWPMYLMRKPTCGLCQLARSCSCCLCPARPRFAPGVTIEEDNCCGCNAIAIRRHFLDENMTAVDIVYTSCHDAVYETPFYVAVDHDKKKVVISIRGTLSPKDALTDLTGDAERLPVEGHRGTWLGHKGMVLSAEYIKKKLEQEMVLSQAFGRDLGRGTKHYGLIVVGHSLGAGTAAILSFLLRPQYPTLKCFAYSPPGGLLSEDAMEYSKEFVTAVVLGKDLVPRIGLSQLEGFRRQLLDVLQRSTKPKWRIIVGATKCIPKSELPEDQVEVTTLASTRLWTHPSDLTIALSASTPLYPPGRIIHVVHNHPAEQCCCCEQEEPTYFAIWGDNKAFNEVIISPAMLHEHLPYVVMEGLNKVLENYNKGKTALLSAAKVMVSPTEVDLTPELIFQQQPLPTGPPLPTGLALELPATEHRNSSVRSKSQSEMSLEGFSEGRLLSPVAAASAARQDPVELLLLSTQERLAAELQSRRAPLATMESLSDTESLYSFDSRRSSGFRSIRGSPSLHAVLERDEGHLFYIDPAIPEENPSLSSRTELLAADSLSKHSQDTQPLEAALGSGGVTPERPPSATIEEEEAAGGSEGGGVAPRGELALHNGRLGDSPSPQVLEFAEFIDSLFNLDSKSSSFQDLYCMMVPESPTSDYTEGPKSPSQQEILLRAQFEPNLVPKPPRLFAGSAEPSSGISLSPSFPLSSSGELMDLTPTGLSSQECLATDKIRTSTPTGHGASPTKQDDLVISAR
- TEST DESCRIPTION: Radio-TLC assay with [14C]SAG substrate, mDAGLα
- RUN CONDITIONS: 100 nM
MEASUREMENT LABEL: mDAGLα inhibition at 100 nM (%)

CCCCCCCCCCC[C@@H](C[C@@H]1OC(=O)[C@H]1CCCCCC)OC(=O)[C@@H](NC=O)[C@@H](C)CC = 80
CCCCCCCCCCC[C@@H](C[C@@H]1OC(=O)[C@H]1CCCCCC)OC(=O)[C@@H](NC=O)[C@H](C)CC = 61

P = CCCCCCCCCCC[C@@H](C[C@@H]1OC(=O)[C@H]1CCCCCC)OC(=O)[C@H](NC=O)[C@@H](C)CC
Q = CCCCCCCCCCCC(CC1OC(=O)C1CCCCCC)OC(=O)C(NC=O)C(C)CC (stereo not shown)
Problem: // task: argmin of mDAGLα inhibition at 100 nM (%) over [ P , Q ] Could you answer with the label of the item you picked?
Solution: Q
(Q: 29%, P: 51%)
